Listing: GI50 of selected compounds
- Tested on: 786-0
- assay: NCI tumour cell line growth inhibition, 48 h
Activity calls are given as the source filed them. No stated cut-off is given here; in the data, active = GI50 up to about 1.1 µM and inactive = higher.

Recorded GI50, per entry:
compound | target or system | GI50
CCCCCCCCCCCC[N+](CCCCCCCCCCCC)=C1SCCS1 | 786-0 | 3.52 µM (inactive)
CCC1(c2ccccc2)C(=O)N=C(c2ccccc2)N1CCc1ccccc1 (configuration not stated) | 786-0 | > 100 µM (inactive)
C=C1C(=O)[C@@]23CC1C(O)[C@@H](OC(C)=O)[C@@H]2C1(C)C(OC(C)=O)C[C@@H](OC(C)=O)C(C)(C)[C@@H]1C[C@H]3OC(C)=O (some centres not stated) | 786-0 | 5.52 µM (inactive)
O=C1C=CC(=O)N1n1c(Cc2ccccc2)n[nH]c1=O | 786-0 | > 100 µM (inactive)
C=CCN(N=O)C(=O)N(CCC)CCCC(NC(C)=O)C(=O)NCc1ccccc1 (configuration not stated) | 786-0 | > 100 µM (inactive)

Memo: Cc1ccc(C)c(NC(=O)CCc2nnc(S)[nH]2)c1 , reported GI50: > 100 µM (inactive)

Entry Cc1ccc(Cc2n[nH]c(=O)n2/N=C\CC/C=N\n2c(Cc3ccc(C)cc3)n[nH]c2=O)cc1 , GI50 reported as 18.5 µM (inactive)

----------
- Tested on: SF-295
- assay: NCI tumour cell line growth inhibition, 48 h
The source made the active and inactive calls. Rule as the data show it: active = GI50 up to about 1.1 µM and inactive = higher.
Hi there, use one of these labels in your reply, thanks! 1 for active, -1 for inactive

Here are 3 molecules together with their reported answers.
molecule | target or system | classification
Cc1ccc(O)c(-c2cc(-c3cccc(Br)c3)on2)c1 | SF-295 | -1
COc1cc(C2SCC(=O)N2c2ccccn2)cc(OC)c1OC (stereo not given) | SF-295 | -1
CC(=O)N1C/C(=C\c2ccc(N(C)C)cc2)C(=O)/C(=C/c2ccc(N(C)C)cc2)C1 | SF-295 | -1

Please indicate how the test categorized COC(=O)Cc1c(C2=Nc3ccccc3C2(O)CC(=O)OC)[nH]c2ccccc12 (stereo not given) .
-1

I would be grateful if you could indicate the recorded call for CC(Oc1ccc2c(=O)cc(-c3ccccc3)oc2c1)C(=O)O (stereo not given) .
-1

I would be grateful if you could indicate the recorded call for COC(=O)C1=C(OC(=O)/C=C/c2ccc(Cl)cc2)C(C(=O)OC)[C@@]2(O)[C@@H](C(=O)OC)[C@H](C)C[C@@H]1[C@@H]2C(=O)OC (stereo not given in full) .
-1

Hi team, can someone confirm the assay call for COc1cc2c(cc1OC)C1c3ccccc3CCN1CCC2.[O-][Cl+3]([O-])([O-])O (stereo not given) ?
-1

Just curious, what result did O=C(O)c1ccc(P(=O)(O)c2ccc(C(=O)O)cc2Br)c(Br)c1 get here?
-1

Please share the test call associated with CC1=NN(C(=O)CC(=O)Nc2ccccc2C)C(=O)C1/N=N/c1ccc(C(=O)O)cc1 (stereo not given) .
-1

Test call for this molecule, please: Oc1c(Br)cc(Br)cc1CN(Cc1cc(Br)cc(Br)c1O)C1CCCCC1
-1

What outcome does the record of this test show for Cc1cccc2[n+]1[C@H]1[C@H]([C@@H]3O[C@H]1c1ccccc13)[S+]([O-])N2 (stereo not given in full) ?
-1

----------
Each record here notes measured GI50.
- Tested on: HCT-15
The reply should contain only the number, in µM.

molecule | unit abbrev | meas value
COc1ccc(C2=C(Cl)c3cc(OC)c(OC)cc3C2OC)cc1OC (centres undefined) | µM | 56.9
Cc1ccc(C)c(NC(=O)CCc2nnc(S)[nH]2)c1 | µM | 44.2
Cc1ccc(S(=O)(=O)SCc2ccccc2)cc1 | µM | 14.1
O=C(Nc1nc2ncn(CCOC(=O)c3ccccc3)c2c(=O)[nH]1)c1ccccc1 | µM | 4.7
O=C(NCCNCCCNC(=O)c1cc(-c2ccccc2)nc2ccccc12)c1cccc(O)c1O | µM | 5.36
N#C/C(=C\c1c[nH]c2ccccc12)C(=O)c1ccc(O)c(O)c1 | µM | 22.9
CC(=O)O[C@H]1CC[C@@]2(C)C(=CC[C@@H]3[C@@H]2CC[C@]2(C)C(=N/O)/C(=C\c4ccccc4)C[C@@H]32)C1 | µM | 16.5
O=C(Cc1nc2ccccc2[nH]c1=O)c1c[nH]c2ccccc12 | µM | 8.18

GI50 in this record for C=C1C(=O)OC2C1CC1OC2C(C)CCC/C(C)=C\CCC1(C)O (centres undefined) : 18.2

Memo: COc1cc(C2SCC(=O)N2c2ccccn2)cc(OC)c1OC (centres undefined) , reported GI50: 55.5

----------
- Test system: OVCAR-3
- assay: NCI tumour cell line growth inhibition, 48 h
Active and inactive are the calls of the source. Rule as the data show it: active = GI50 up to about 1.1 µM and inactive = higher.
Below: a set of entries, each annotated with reported GI50.

compound | meas value
O=C1NCC(NC(=O)C(F)(F)F)c2c(Br)sc(Br)c21 (stereo unspecified) | > 100 µM (inactive)
CCOC(=O)C(=O)Nc1c(C)cccc1C(C)C | > 100 µM (inactive)
COC(=O)Cc1c(C2=Nc3ccccc3C2(O)CC(=O)OC)[nH]c2ccccc12 (stereo unspecified) | 62.1 µM (inactive)
O=S(=O)(Nc1nc2ccccc2nc1N1CCCCCC1)c1ccccc1 | 17.1 µM (inactive)
O=[N+]([O-])c1ccc(/N=N\c2c(O)ccc3ccccc23)c([N+](=O)[O-])c1 | > 100 µM (inactive)

Record summary for CC(=O)OC12CC(C)C3(O)C4C=C(C)C(=O)[C@@]4(O)CC(CO)=C[C@H]3C1C2(C)C (stereo partly specified) : reported GI50 = > 10 µM (inactive)

The value of GI50 measured for the compound CCCC[N+](CCCC)(CCCC)CCCC.O=S(=O)([O-])ON=C1c2ccccc2-c2ccccc21 turned out to be > 100 µM (inactive)

GI50 recorded for this compound, COc1cc(C(=O)/C=C/c2ccc(OCCSCCCCCCCCCCSCCOc3ccc(/C=C/C(=O)c4cc(OC)c(OC)c(OC)c4)cc3)cc2)cc(OC)c1OC , is > 100 µM (inactive)

So for O=C(O)C1(Cc2ccc3c(c2)CCC3)Cc2ccccc2C1=O (stereo unspecified) , the logged GI50 turned out to be 54 µM (inactive)

The measured GI50 associated with O=C1NC(=S)N/C1=C\c1ccc(Cl)cc1 reads > 100 µM (inactive)

Consider N/N=C1\C(=O)N(c2ccc(Cl)c(Cl)c2)C(=O)C1C(=O)Nc1ccc(Cl)c(Cl)c1 (stereo unspecified) . Its measured GI50 is 49.9 µM (inactive)

Measured GI50, CC(C)N/C(=N\C#N)NS(=O)(=O)c1cnccc1NC1CCCCCCC1 : > 100 µM (inactive)

The recorded GI50 for entry [N-]=[N+]=Nc1c(Cl)c(=O)n(-c2ccccc2)c2ccccc12 equals 17.3 µM (inactive)

compound OCC1OC(NC(=S)NCCC(F)(F)C(F)(F)C(F)(F)C(F)(F)C(F)(F)C(F)(F)F)C(O)C(O)C1O (stereo unspecified) , GI50 observed: > 100 µM (inactive)

Entry CC(C)[C@H](NC(=O)OCc1ccccc1)C(=O)N[C@H](/C=C/C(=O)OC(C)(C)C)CO , GI50 reported as > 100 µM (inactive)

Record COC(=O)/C(=N/NC(=O)C[N+](C)(C)C)C(C(=O)OC)C(=O)C(=O)Nc1ccc(F)cc1 (stereo unspecified) , field GI50: > 100 µM (inactive)

According to the records, this compound NC(=O)NCCCC(NC(=O)OCCCCn1ccc(=O)[nH]c1=O)C(=O)O (stereo unspecified) displays GI50 of > 100 µM (inactive)

Record CCCCCCCCCCCCOC1C(COCCN2CCCC2)OC2OC(C)(C)OC21 (stereo unspecified) . Reported GI50: 1.62 µM (inactive)

get_value(item= CSCCCN(CCCSC)CCCSC , readout=GI50) returns > 100 µM (inactive)

Sample CC(=O)C1=C(C)Cn2c(=O)c3ccccc3c(=O)n2C1 ; GI50 observed: > 100 µM (inactive)

Kindly note the recorded GI50 for Cn1c2ccccc2c2[nH]c3ccccc3c(=O)c21 , which is > 100 µM (inactive)

----------
- Test system: HOP-18
- assay: NCI tumour cell line growth inhibition, 48 h
Activity calls are given as the source filed them. Rule as the data show it: active = GI50 up to about 1.1 µM and inactive = higher.
# GI50 per entry

smiles code | target or system | meas value
O=NN(CCCl)C(=O)N[C@H]1CCCC[C@@H]1Cl | HOP-18 | > 100 µM (inactive)
CCOc1cc2c[n+](C)c3c4cc(OC)c(OC)cc4ccc3c2cc1OC | HOP-18 | 60.8 µM (inactive)
COC(=O)c1ccc(C(=O)OC)c2nc3cc(C)ccc3nc12 | HOP-18 | > 100 µM (inactive)
COc1cc2c(OC)cc1CSCc1sc(C)c(c1Br)CSC2 | HOP-18 | > 100 µM (inactive)
Brc1ccc(/C=N/C23CC4CC(CC(C4)C2)C3)cc1 | HOP-18 | > 100 µM (inactive)

Here is the next item to consider.
NCCCNc1ccc2c3c(nn2CCNCCO)-c2c(O)ccc(O)c2C(=O)c13 has a reported GI50 of 2.32 µM (inactive)
